Where do these numbers come from? They come from paper PMC12040169.

Reported viability at 28.5 h, 10 µM by item:
# assay text: in vitro
# recorded conditions: human, hela cells, % viability
measured endpoint: viability at 28.5 h, 10 µM (%)

molecule: COc1ccc(C(CNC(=O)C2C(C(=O)O)C2(C)C)N(C)C)cc1 (stereo not shown) [CBK286700]
measured endpoint: viability at 28.5 h, 10 µM
measurement: 110
--
molecule: CC(NCC(=O)N1c2ccccc2NC(=O)CC1C)c1ccc(-c2ccccc2)cc1 (stereo not shown) [CBK295155]
measured endpoint: viability at 28.5 h, 10 µM
measurement: 84.2
--
molecule: CN1CCC(NC(=O)c2cccc(NC(=O)C3CCCCC3)c2)C1=O (stereo not shown) [CBK306228]
measured endpoint: viability at 28.5 h, 10 µM
measurement: 81.3
--
molecule: O=C1c2ccc(Oc3cccc(Oc4ccc5c(c4)C(=O)N(c4ccccn4)C5=O)c3)cc2C(=O)N1c1ccccn1 [CBK261397]
measured endpoint: viability at 28.5 h, 10 µM
measurement: 89.8
--
molecule: Cc1cc(-c2cn(C)nc2C2CCCCN2C(=O)C2CCCC2)on1 (stereo not shown) [CBK283404]
measured endpoint: viability at 28.5 h, 10 µM
measurement: 96.9
--
molecule: O=C(NC(C(=O)N/N=C/c1ccc(Cl)cc1Cl)c1n[nH]c(=O)c2ccccc12)c1ccccc1 (stereo not shown) [CBK261118]
measured endpoint: viability at 28.5 h, 10 µM
measurement: 103
--
molecule: O=C(NCCC(c1ccccc1)c1ccco1)C1CCCN1 (stereo not shown) [CBK282499]
measured endpoint: viability at 28.5 h, 10 µM
measurement: 85
--
molecule: CN(C)C(=O)c1cc(-c2cccc(N(C)C)c2)cnc1NCC1CC1 [CBK076333]
measured endpoint: viability at 28.5 h, 10 µM
measurement: 85.1
--
molecule: Cc1cc(NS(=O)(=O)c2ccc(Br)cc2C(F)(F)F)n(C)n1 [CBK067255]
measured endpoint: viability at 28.5 h, 10 µM
measurement: 107
--
molecule: COc1ccccc1-c1ccc(NC(=O)CCn2cnc3ccccc3c2=O)cc1 [CBK285711]
measured endpoint: viability at 28.5 h, 10 µM
measurement: 95.2
--
molecule: O=C(Nc1ccc(-c2nc3ccccc3s2)c(O)c1)c1ccc(-c2ccccc2)cc1 [CBK263979]
measured endpoint: viability at 28.5 h, 10 µM
measurement: 92.9
--
molecule: CC(=O)N1CCN(Cc2c(C(F)(F)F)[nH]c3ncc(C)cc23)CC1 [CBK284768]
measured endpoint: viability at 28.5 h, 10 µM
measurement: 93.1
--
molecule: CCOC(=O)c1cnc2c(C)cc(Cl)cc2c1N1CCN(Cc2ccccc2)CC1 [CBK265975]
measured endpoint: viability at 28.5 h, 10 µM
measurement: 108
--
molecule: COc1ccc(C[C@@H]2NC(=O)[C@H]3CN(C(=O)Nc4cccc(OC)c4)CCN3C2=O)cc1 [CBK289617]
measured endpoint: viability at 28.5 h, 10 µM
measurement: 98.9
--
molecule: Cc1ccc2c(CC(=O)N(C)CCc3cn[nH]c3)coc2c1 [CBK283239]
measured endpoint: viability at 28.5 h, 10 µM
measurement: 90.8
--
molecule: O=C(Nc1ccc2[nH]ccc2c1)c1ccccc1Nc1cccc(C(F)(F)F)c1 [CBK149583]
measured endpoint: viability at 28.5 h, 10 µM
measurement: 105
--
molecule: CN1CCc2nc(SCC(=O)c3ccc(-c4ccccc4)cc3)c(C#N)c(-c3cccs3)c2C1 [CBK267447]
measured endpoint: viability at 28.5 h, 10 µM
measurement: 88.3
--
molecule: CCNC(CO)c1ccccc1 (stereo not shown) [CBK061785]
measured endpoint: viability at 28.5 h, 10 µM
measurement: 109
--
molecule: O=C1NCC2(CCN(C(=O)C3CC3)CC2)Oc2ccccc21 [CBK282918]
measured endpoint: viability at 28.5 h, 10 µM
measurement: 101
--
molecule: CN(C)c1cccc(-c2cncc(NCCCN3CCOCC3)n2)c1 [CBK065635]
measured endpoint: viability at 28.5 h, 10 µM
measurement: 94.8
--
molecule: O=C(O)c1ccccc1-c1ccc(-c2cc(C(=O)O)c3cc(F)ccc3n2)o1 [CBK269051]
measured endpoint: viability at 28.5 h, 10 µM
measurement: 98.8
--
molecule: O=C(O)C1=CC(c2c[nH]nc2-c2ccc(F)cc2)n2ncnc2N1 (stereo not shown) [CBK286906]
measured endpoint: viability at 28.5 h, 10 µM
measurement: 86.2
--
molecule: O=C1c2ccccc2C(c2ccc(NC(=O)c3cccc4ccccc34)cc2)(c2ccc(NC(=O)c3cccc4ccccc34)cc2)c2ccccc21 [CBK261162]
measured endpoint: viability at 28.5 h, 10 µM
measurement: 103
--
molecule: CCN(CC)S(=O)(=O)c1ccc(OC)c(NC(=O)C2c3ccccc3Oc3ccccc32)c1 [CBK264774]
measured endpoint: viability at 28.5 h, 10 µM
measurement: 101
--
molecule: O=C(NC1CCCC1)c1ccc2nccnc2c1 [CBK200217]
measured endpoint: viability at 28.5 h, 10 µM
measurement: 102
--
molecule: CC(C)CC(NS(=O)(=O)c1cccc2nsnc12)C(=O)O (stereo not shown) [CBK217288]
measured endpoint: viability at 28.5 h, 10 µM
measurement: 94.2
--
molecule: CCc1nn(CC(=O)NCC2CC2)c(=O)c2cc3sccc3n12 [CBK284055]
measured endpoint: viability at 28.5 h, 10 µM
measurement: 90.5
--
molecule: CCC(=O)N[C@H]1CC[C@@]2(Cc3ccc(OC)cc3)CCN(C)[C@H]2C1 [CBK024126]
measured endpoint: viability at 28.5 h, 10 µM
measurement: 98.9
